Test: S16 Schwann cell PMP22 intronic element firefly luciferase assay (AID 624032); also: nearly all actives have a fitted effect of over 30% in size
Conditions: S16 rat Schwann cells, PMP22 element FLuc, 24 h; series mostly up to 57.5 µM
Inconclusive results are not listed. Activity calls are given as the source filed them. Calls follow the shape of the dose curve; as a rule, active = well fitted inhibition curve with a large enough effect; inconclusive = small, poorly fitted or top-dose-only effect; inactive = no such curve, though single readings can be large or run the other way.
Reply using exactly one outcome from 1 for active, -1 for inactive

Nc1ccc(S(=O)(=O)NC(=O)c2ccccc2)cc1 :: -1

Q: What call does the record list for NCCNCCNCCNCCN ?
A: -1

Q: For Cc1c(O)cccc1C(=O)N[C@@H](CSc1ccccc1)[C@H](O)CN1C[C@H]2CCCC[C@H]2C[C@H]1C(=O)NC(C)(C)C , what call appears in the results of this test?
A: 1

Q: Outcome? CCCCOC(=O)c1ccc(O)cc1
A: -1

Q: Hi team, can someone confirm the assay call for CCCOC(=O)c1ccccc1 ?
A: -1

Q: What was the test verdict on C#CCN(C)Cc1ccccc1 ?
A: -1

Q: Just curious, what result did [Cl][In]([Cl])[Cl] get here?
A: -1

====

Assay: qHTS of pediatric cancer cell lines to identify multiple opportunities for drug repurposing: Primary screen for SJ-GBM2 cells (AID 1347091)
Conditions: SJ-GBM2 viability, CellTiter-Glo luminescence, 48 h; series mostly up to 46 µM
Results filed as inconclusive are left out. Calls of active or inactive are those of the source. Calls come from the whole dose curve; as a rule, active = well fitted cell-killing curve with a large enough effect; inconclusive = small, poorly fitted or top-dose-only effect; inactive = no such curve, though single readings can be large or run the other way.
Thanks in advance; please answer with one of these: 1 (active), -1 (inactive)

CCCn1cnc2c1c(=O)n(CCCCC(C)=O)c(=O)n2C :: -1
COC(=O)C1=C(C)NC(C)=C(C(=O)OC)C1c1ccccc1[N+](=O)[O-] :: -1

Q: What is the recorded call for this molecule in the test? CCN(CC)C(=O)Nc1ccc(OCC(O)CNC(C)(C)C)c(C(C)=O)c1 (stereo not drawn)
A: -1

Q: Recorded test call requested for CC(C)c1c(C(=O)Nc2ccccc2)c(-c2ccccc2)c(-c2ccc(F)cc2)n1CC[C@@H](O)C[C@@H](O)CC(=O)O
A: 1

Q: Please let me know the test result on file for CC(=O)CCC(=O)O .
A: -1

====

Assay: qHTS profiling for inhibitors of Plasmodium falciparum proliferation (AID 504749);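 also: 0% = DMSO vehicle and full inhibition = artemisinin control; nearly all actives have a fitted effect of over 60% in size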
Details: P. falciparum in erythrocytes, SYBR Green DNA, 72 h; at 28.7 µM (top of the series); parasite line B
Records with an inconclusive call do not appear.
For each record, write down the corresponding activity, negative = inhibition.
Answers are plain numbers, in %.

Below: 8 molecules and their reported activity, negative = inhibition.
CCCn1cnc2c1c(=O)n(CCCCC(C)=O)c(=O)n2C :: -0.0808
CC12CCC(CC1)C(C)(C)O2 :: -14.4
CC1(C)[C@@H]2CC[C@@]1(C)C(=O)C2 :: 6.35
CCCOC(=O)c1ccccc1 :: 2.76
c1ccc(CN(CC2=NCCN2)c2ccccc2)cc1 :: -1.95
CN(C)CCN(Cc1ccccc1)c1ccccn1 :: 9.22
O=Cc1ccccc1C=O :: 5.64
CN1CCN(C2Cc3ccccc3Sc3ccc(Cl)cc32)CC1 (centres undefined) :: -6.83

Could you report activity, negative = inhibition for every entry in the following list?
1. Nc1ccc(S(=O)(=O)Nc2nccs2)cc1
2. CCC(=O)Nc1ccc(O)cc1
3. O=C(O)c1ccccc1O

A:
-2.23
-3.83
11.3

====

Target: Retinoic acid receptor RXR-alpha (Homo sapiens)
Test: qHTS assay for small molecule antagonists of retinoid X receptor alpha signaling (AID 588546);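 also: cells stimulated with 9-cis-retinoic acid as agonist; % is scaled to controls: 0 for no effect and ±100 for the full control effect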
Details: HEK293T RXRa-UAS-bla, beta-lactamase ratio, antagonist mode
Records with an inconclusive call do not appear. Activity calls are given as the source filed them. The call rests on the fitted dose curve; in most records, active means well fitted inhibition curve with a large enough effect in the signal ratio, with a control signal flat (not every such curve was filed as active); inconclusive means small, poorly fitted or top-dose-only effect, or effect the other way, or a change in a side signal; inactive means no such curve, though single readings can be large or run the other way; the % refers to the signal ratio.
Hi there, I'd appreciate the recorded max response for every entry that follows.

CCCc1c(OCCCCc2nn[nH]n2)ccc(C(C)=O)c1O :: 3.05% (inactive)

Each of the following entries comes with a recorded value; kindly state max response for each.
1. CC1(C)[C@@H]2CC[C@@]1(C)C(=O)C2
2. CCOC(=O)c1ccc(O)cc1
3. CC(O)COc1ccccc1 (stereo not given)
4. CN(C)CCCN1c2ccccc2Sc2ccc(Cl)cc21
5. Nc1ccc(S(=O)(=O)Nc2nccs2)cc1
6. COC(=O)C1=C(C)NC(C)=C(C(=O)OC)C1c1ccccc1[N+](=O)[O-]
7. O=S(=O)(O)NC1CCCCC1
8. COc1ccc(Cl)cc1C(=O)NCCc1ccc(S(=O)(=O)NC(=O)NC2CCCCC2)cc1

A:
["2.47% (inactive)", "4.29% (inactive)", "-2.29% (inactive)", "-16.5% (inactive)", "19.3% (inactive)", "23.4% (inactive)", "5.18% (inactive)", "-9.84% (inactive)"]

Give max response for each listed item.
1. CC12CCC(CC1)C(C)(C)O2
2. CCCCC(CC)COC(=O)c1ccccc1O (stereo not given)
3. NCCNCCNCCNCCN

A:
1. 10.3% (inactive)
2. 6.6% (inactive)
3. -26.1% (inactive)

Parameter requested: max response. Apply to each item below.
1. NCCNCCNCCN
2. CC(O)CN(CCN(CC(C)O)CC(C)O)CC(C)O (stereo not given)

A:
1. 10.1% (inactive)
2. -14.1% (inactive)

Q: Report max response for CCCCCCCCCCCCOS(=O)(=O)O please.
A: 6.26% (inactive) [middle of 4 runs]

====

Test system: CP256
Test: qHTS profiling for inhibitors of Plasmodium falciparum proliferation (AID 504749);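 also: 0% = DMSO vehicle and full inhibition = artemisinin control; nearly all actives have a fitted effect of over 60% in size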
Details: P. falciparum in erythrocytes, SYBR Green DNA, 72 h; series mostly up to 28.7 µM
Inconclusive results are not listed. Active and inactive are the calls of the source. The call rests on the fitted dose curve; in most records, active means well fitted inhibition curve with a large enough effect; inconclusive means small, poorly fitted or top-dose-only effect; inactive means flat fitted curve, though single readings scatter.
Classes to choose from: T = active, F = inactive

Cc1cc2c(cc1S(N)(=O)=O)S(=O)(=O)CCC2 :: F
Cc1cccc(C)c1NC(=O)CN(CC(=O)O)CC(=O)O :: F

Q: Fill in: this test's call for CCCCCCCCCCCCCCCC(=O)NCCO is ___
A: F

Q: Dear all, I need the recorded test outcome for O=C(Oc1ccccc1C(=O)O)c1ccccc1O , thank you.
A: F

Q: Per the records of this test, what outcome belongs to COc1ccc2c(c1)C(=O)N(CCc1ccc(S(=O)(=O)NC(=O)NC3CCCCC3)cc1)C(=O)C2(C)C ?
A: F

Q: Which result was noted for this compound in the test: NC(=O)NC(=O)Cc1ccccc1
A: F

Q: Recorded test outcome, item C[C@H]1O[C@@H](n2cc(F)c(=O)[nH]c2=O)[C@H](O)[C@@H]1O
A: F

Q: Hello, I am checking results. What call was entered for COc1cc(C(=O)N2CCOCC2)cc(OC)c1OC ?
A: F

Q: Could you kindly confirm the outcome this assay logged for CN1CCN(C2Cc3ccccc3Sc3ccc(Cl)cc32)CC1 (stereo not given) ?
A: F

Q: Recorded call for CC(C)(C)C(=O)C(Oc1ccc(Cl)cc1)n1ccnc1 (stereo not given) ?
A: F

Q: For CC1=C(/C=C/C(C)=C/C=C/C(C)=C/C(=O)O)C(C)(C)CCC1 , which call appears in the assay record?
A: F

Q: Outcome logged for CC(=O)NC(Cc1ccccc1)C(=O)O (stereo not given) in this assay:
A: F

====

Assay: MultiTox-Fluor Cytotoxicity Assay - LYMP1-002 - Dead Cells (AID 960);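 also: cells exposed to compound for 16 h at 37 °C; 0% = DMSO and 100% = tetraoctylammonium bromide; nearly all actives have a fitted effect of over 60% in size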
Details: LYMP1-002 lymphoblastoid cells, dead-cell protease fluorescence; series mostly up to 46.1 µM
Results filed as inconclusive are left out. Activity calls are given as the source filed them. The call rests on the fitted dose curve; in most records, active means well fitted cell-killing curve with a large enough effect; inconclusive means small, poorly fitted or top-dose-only effect, or effect the other way; inactive means no such curve, though single readings can be large or run the other way.
Measurement Label: outcome

Reference set (5 entries):
NCCNCCNCCN :: inactive
COc1ccccc1O :: inactive
CCCCOC(=O)c1ccc(O)cc1 :: inactive
NCCNCCNCCNCCN :: inactive
NC(=O)c1ncn([C@@H]2O[C@H](CO)[C@@H](O)[C@H]2O)n1 :: inactive

Okay, here is my list. What is outcome for each of these?
1. C[C@]12C[C@H](O)[C@H]3[C@@H](CCC4=CC(=O)CC[C@@]43C)[C@@H]1CC[C@@H]2C(=O)CO
2. O=C1O[C@H]([C@@H](O)CO)C(O)=C1O

A:
1: inactive; 2: inactive

====

Assay: Cell Viability - MRC5 (AID 434);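 also: cells exposed to compound for 40 hours at 37 °C; potency reflects cytotoxicity seen as loss of intracellular ATP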
Conditions: MRC5 lung fibroblast viability, qHTS
Text: NIH Chemical Genomics Center [NCGC] NIH Molecular Libraries Screening Centers Network [MLSCN] National Institutes of Environmental Health Sciences [NIEHS] National Toxicology Program [NTP] We have developed a 1536-well cell-based assay for quantitative high throughput screening (qHTS) against a number of cell lines to determine in vitro cytotoxicity of small molecules. […] 8. Detection; Luminescence; Viewlux plate reader […]
Records with an inconclusive call do not appear. Calls of active or inactive are those of the source. Calls follow the shape of the full dose curve.
Please state which outcome applies, choosing from Y (active), N (inactive)

CC12CCC(CC1)C(C)(C)O2 :: N
Nc1ccc(S(=O)(=O)Nc2nccs2)cc1 :: N
NCCNCCNCCNCCN :: N

Q: Which outcome was assigned to Cc1c(O)cccc1C(=O)N[C@@H](CSc1ccccc1)[C@H](O)CN1C[C@H]2CCCC[C@H]2C[C@H]1C(=O)NC(C)(C)C in this test?
A: Y

Q: Check the results log: what was the call for Oc1cccc(O)c1 ?
A: N

Q: I would be grateful if you could indicate the recorded call for Cc1cc(CC(=O)O)n(C)c1C(=O)c1ccc(Cl)cc1 .
A: N

Q: Which outcome did this test record for the molecule O=C1O[C@H]([C@@H](O)CO)C(O)=C1O ?
A: N

Q: Give the logged outcome of this assay for the following molecule: NC(=O)c1ncn([C@@H]2O[C@H](CO)[C@@H](O)[C@H]2O)n1
A: N

Q: Answer briefly: the call reported for CCCCOC(=O)c1ccc(O)cc1 in this assay.
A: N

Q: Each molecule tested received a call. Report the one for CC1(C)[C@@H]2CC[C@@]1(C)C(=O)C2 .
A: N

Q: Call for entry [Cl][In]([Cl])[Cl] :
A: N

Q: What did this assay record as the result for O=C1c2c(O)cccc2Cc2cccc(O)c21 ?
A: N

Q: Check the results log: what was the call for NCCNCCNCCN ?
A: N

The values you see were collected from PubChem BioAssay (NCATS).
